Quick list: viability, T/C per entry.
Test system: 885724-159-R-J1-PDC complex spheroid viability
Assay: Anticancer human tumor 885724-159-R-J1-PDC patient-derived pancreatic adenocarcinoma cell line growth inhibition [GQUAD]
Conditions: second compound 0.0316 µM; first compound 0.1 µM; stronger effect = lower value
Your answer is read as %, so omit the unit and give the number.

# input Form field: reported viability, T/C of O=C(NO)c1cnc(N2CCN(S(=O)(=O)c3ccc4ccccc4c3)CC2)nc1 + CN(C)c1ccc(Nc2c3ccc(NC(=O)CCN4CCCC4)cc3nc3cc(NC(=O)CCN4CCCC4)ccc23)cc1
# output 117

# input Which viability, T/C is reported for this compound? CC1COCCN1c1cc(C2(O)CC3CCC(C2)O3)c2cnn(-c3ccn[nH]3)c2n1 (stereo not given) + Cc1cnc(CNC(=O)c2c(=O)c3ccc(N4CCCN(C)CC4)nc3n3c2sc2ccccc23)cn1
# output 71

# input Entry CC1COCCN1c1cc(C2(S(C)(=N)=O)CC2)nc(-c2ccnc3[nH]ccc23)n1 (stereo not given) + CN(C)c1ccc(Nc2c3ccc(NC(=O)CCN4CCCC4)cc3nc3cc(NC(=O)CCN4CCCC4)ccc23)cc1 : reported viability, T/C = ?
# output 106

# input Name the recorded viability, T/C for O=C(c1cc(Cc2n[nH]c(=O)c3ccccc23)ccc1F)N1CCN(C(=O)C2CC2)CC1 + Cc1cnc(CNC(=O)c2c(=O)c3ccc(N4CCCN(C)CC4)nc3n3c2sc2ccccc23)cn1 .
# output 96.7

# input Requested field: viability, T/C. Item: O=C(NO)c1cnc(N2CCN(S(=O)(=O)c3ccc4ccccc4c3)CC2)nc1 + Cc1[nH]c2ccc(F)cc2c1-c1nc2c3cccnc3c3ncccc3c2[nH]1
# output 96.9

###

System: 885724-159-R-J1-PDC complex spheroid viability
Test: Anticancer human tumor 885724-159-R-J1-PDC cell line growth inhibition [GQUAD];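 also: spheroids exposed to agents for seven days before readout; percent of vehicle control viability where 100% = DMSO wells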
Settings: second compound 0.1 µM; first compound 3.16 µM; stronger effect = lower value
Items are presented alongside their recorded viability, T/C.
Hi! Could you send only the number? It should be in %, unit omitted.

Worked examples follow.
- COMPOUND: "CC1COCCN1c1cc(C2(O)CC3CCC(C2)O3)c2cnn(-c3ccn[nH]3)c2n1 (stereo not drawn) + Cc1[nH]c2ccc(F)cc2c1-c1nc2c3cccnc3c3ncccc3c2[nH]1"
  SYSTEM TESTED: "885724-159-R-J1-PDC complex spheroid viability"
  MEASUREMENT UNITS: "%"
  viability, T/C: 42.7
- COMPOUND: "C#Cc1c(F)ccc2cc(O)cc(-c3ncc4c(N5CC6CCC(C5)N6)nc(OCC56CCCN5CC(F)C6)nc4c3F)c12 (stereo not drawn) + CN(C)c1ccc(Nc2c3ccc(NC(=O)CCN4CCCC4)cc3nc3cc(NC(=O)CCN4CCCC4)ccc23)cc1"
  SYSTEM TESTED: "885724-159-R-J1-PDC complex spheroid viability"
  MEASUREMENT UNITS: "%"
  viability, T/C: 56.7

# input Look up viability, T/C for this compound: COc1ccc([C@@H](O)c2cc(-c3ncnc4cc(N5CCOCC5)ccc34)c(F)cc2Cl)nn1 + Cc1cnc(CNC(=O)c2c(=O)c3ccc(N4CCCN(C)CC4)nc3n3c2sc2ccccc23)cn1
# output 67.5

###

Each entry below lists one item and its recorded viability, T/C value.
Test system: 885724-159-R-J1-PDC complex spheroid viability
Test: Anticancer human tumor 885724-159-R-J1-PDC cell line growth inhibition [GQUAD];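 also: spheroids exposed to agents for seven days before readout; percent of vehicle control viability where 100% = DMSO wells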
Settings: second compound 0.1 µM; first compound 0.0316 µM; stronger effect = lower value
Just the number please, in %, no unit attached.

As a guide, the following entries are already answered.
- COMPOUND: "Nc1ccn(C2OC(CO)C(O)C2(F)F)c(=O)n1 (stereo not drawn) + Cc1[nH]c2ccc(F)cc2c1-c1nc2c3cccnc3c3ncccc3c2[nH]1"
  viability, T/C / %: 94.3
- COMPOUND: "CC(C)(O)C1CCC(Nc2ccc3ncc(-c4cccc(C(F)(F)F)c4)n3n2)CC1 (stereo not drawn) + Cc1cnc(CNC(=O)c2c(=O)c3ccc(N4CCCN(C)CC4)nc3n3c2sc2ccccc23)cn1"
  viability, T/C / %: 108

Next:
# input Which viability, T/C value belongs to O=c1[nH]cc(F)c(=O)[nH]1 + Cc1cnc(CNC(=O)c2c(=O)c3ccc(N4CCCN(C)CC4)nc3n3c2sc2ccccc23)cn1 ?
# output 103
